System: UO-31
measurementDescription: NCI tumour cell line growth inhibition, 48 h
The source made the active and inactive calls. Cut-off read from the data, not from the text of the source: active = GI50 up to about 1.1 µM and inactive = higher.
reportedEndpoint: GI50

Prompt: Given NS(=O)(=O)c1ccc(NC2(C(=O)O)CCCC2)cc1 , state its recorded GI50.
Completion: > 100 µM (inactive)

Prompt: What value of measured GI50 is listed for NC1C2(CCCCCC2)NC(=O)C12CCCCCC2 (stereo unspecified) ?
Completion: > 100 µM (inactive)

Prompt: Value lookup for GI50; key = COc1cc(C(=O)C2C(=O)c3ccccc3C2C2(O)c3ccccc3CC2C(O)c2cc(OC)c(OC)c(OC)c2)cc(OC)c1OC (stereo unspecified)
Completion: > 100 µM (inactive)

Prompt: Given the compound NC(=S)N/N=C(/CCN1CCCC1)CC(C1=C(O)C2=CCCCC2OC1=O)c1ccccc1 (stereo unspecified) , what is its reported GI50?
Completion: > 100 µM (inactive)

Prompt: // returns reported GI50 for input CC1OC(n2cc(F)c(=O)[nH]c2=O)C=CC1O (stereo unspecified)
Completion: > 100 µM (inactive)

Prompt: Returns the measured GI50 for the input compound. Input: N#CC1=C(N)OC(c2cccc([N+](=O)[O-])c2)C1(C#N)C#N (stereo unspecified)
Completion: 17.9 µM (inactive)

Prompt: Given COc1cc(/C=C2\C[C@H]3[C@@H]4CC=C5C[C@@H](O)CC[C@]5(C)[C@H]4CC[C@]3(C)[C@H]2O)cc(OC)c1OC , state its recorded GI50.
Completion: 13 µM (inactive)

Prompt: Which GI50 reading was recorded for the compound O=C(Cc1ccccc1)NN1C(=O)C(Cl)C1c1ccccc1O (stereo unspecified) ?
Completion: 4.54 µM (inactive)

Prompt: Need GI50, item CC(=O)/C=C\C(=O)NNS(=O)(=O)c1ccc(C)cc1
Completion: > 100 µM (inactive)

Prompt: Look up GI50: CN(C)Cc1cc(/C(=C(\C#N)c2ccccc2)c2ccc(O)cc2)ccc1O
Completion: 20.4 µM (inactive)

Prompt: What value of measured GI50 is listed for CNC(=O)OCc1nc([S+](C)[O-])n(C)c1COC(=O)NC (stereo unspecified) ?
Completion: > 100 µM (inactive)

----------
Tested on: MDA-MB-231
measurementDescription: NCI tumour cell line growth inhibition, 48 h
The source made the active and inactive calls. Rule as the data show it: active = GI50 up to about 1.1 µM and inactive = higher.
Kindly state GI50 for each of the entries shown.

Prompt: Query: GI50; subject: COc1cc([N+](=O)[O-])ccc1NC(=O)C(F)(F)F
Completion: > 100 µM (inactive)

Prompt: For the compound Cc1ccccc1N/C(=C(/C(Cl)=C(Cl)Cl)[N+](=O)[O-])n1nnc2ccccc21 , what GI50 is on record?
Completion: 21.3 µM (inactive)

Prompt: Return reported GI50; argument: O=C(NC1=C(Cl)C(=O)c2ccccc2C1=O)C(=O)c1c(O)c2ccccc2oc1=O
Completion: 3.48 µM (inactive)

Prompt: What measured GI50 goes with O=S1(=O)c2ccccc2N2C(c3ccccc3)=NOC2(c2ccccc2)CC1c1ccc(Br)cc1 (stereo not given) ?
Completion: > 100 µM (inactive)

Prompt: For the compound Cn1c(=O)c2[nH]c(-n3nc(-c4ccccc4)cc3N)nc2n(C)c1=O , what GI50 is on record?
Completion: 10.6 µM (inactive)

Prompt: Quick one: GI50 for COC(=O)CN(CC(=O)NCCNC(=O)OC(C)(C)C)C1CCCCC1N(CC(=O)OC)CC(=O)OC (stereo not given) ?
Completion: > 100 µM (inactive)

Prompt: Dear colleague, I am looking for the recorded GI50 of the following compound: CCN(CC)C(=O)Cn1c2ccccc2[n+]2cc(N)ccc12
Completion: > 100 µM (inactive)

Prompt: Please give the measured GI50 for this compound: CCN(CC)CCSc1c2cc(OC)ccc2nc2ccc(OC)cc12
Completion: 6.53 µM (inactive)

Prompt: I'd like to know its GI50. The compound in question is Cc1ccc(N(Cc2ccccc2)Cc2ccccc2)cc1
Completion: > 100 µM (inactive)

Prompt: Can you share its GI50? I mean this compound: C=CCC1C2CCC(O[Si](C(C)C)(C(C)C)C(C)C)(C(C(=O)OC)C2)C1O (stereo not given)
Completion: > 100 µM (inactive)

----------
Tested on: KM12
measurementDescription: NCI tumour cell line growth inhibition, 48 h
Active and inactive are the calls of the source. Cut-off read from the data, not from the text of the source: active = GI50 up to about 1.1 µM and inactive = higher.
For each of the molecules below, state its GI50.

Prompt: Which value of GI50 has been reported for COc1cc2c(cc1NC(=O)c1ccccc1)c1c(n2S(=O)(=O)c2ccccc2)CCN(S(=O)(=O)c2ccccc2)C1 in the records?
Completion: > 100 µM (inactive)

Prompt: Request the reported GI50 associated with Nc1cccc(C#Cc2cccc(C#Cc3cccc(N)n3)n2)n1
Completion: > 100 µM (inactive)

Prompt: Look at this molecule and give its reported GI50. Cc1cccc(C)c1NC(=O)/C(Cc1nc2ccc([N+](=O)[O-])cc2nc1O)=N\NC(N)=O
Completion: 57.5 µM (inactive)

Prompt: Which GI50 is reported for this molecule? CCOC(=O)n1c2ccccc2c2c(O)c(OC)c3c(c21)C(=O)NC3=O
Completion: 50.8 µM (inactive)

Prompt: Query: GI50; subject: CC1=C(C(=O)Nc2ccccc2C)C(c2ccccc2C)C(C(=O)Nc2ccccc2C)=C(C)N1
Completion: 18.4 µM (inactive)

Prompt: Query: GI50; subject: CN(C)CC1(C)CC/C(=C\c2ccc(Cl)cc2)C1=O (stereo unspecified)
Completion: 31.8 µM (inactive)

----------
Please go through the items and note down their GI50.
Tested on: DMS-114
measurementDescription: NCI tumour cell line growth inhibition, 48 h
Active and inactive are the calls of the source. Cut-off read from the data, not from the text of the source: active = GI50 up to about 1.1 µM and inactive = higher.

Prompt: Returns the measured GI50 for the input compound. Input: O=[N+]([O-])c1ccc(C2=Nn3cnnc3SC2)o1
Completion: 10.8 µM (inactive)

Prompt: # get_value(readout='GI50', item= Cc1noc2c1C(=O)CCC2 )
Completion: > 100 µM (inactive)

Prompt: Entry under review: CC1OC(n2cc(F)c(=O)[nH]c2=O)C=CC1O (centres undefined) . Reported GI50?
Completion: > 100 µM (inactive)

Prompt: Requested read-out: GI50. Entry: Cn1nc2ccc3nccc(NCCNCCCl)c3c2n1
Completion: > 100 µM (inactive)

Prompt: Please look up its GI50: O=C(N/N=C(\c1nc2ccc(Cl)cc2nc1O)C(O)c1ccccc1Cl)c1ccncc1 (centres undefined)
Completion: > 100 µM (inactive)

Prompt: Which value of GI50 has been reported for O=C1NC(=O)c2c1n(Cc1ccccc1)c(=O)n2Cc1ccccc1 in the records?
Completion: > 100 µM (inactive)

Prompt: Would you kindly share the measured GI50 for CC(=O)NC1=C(NC(C)(C)C)C(=O)c2ccccc2C1=O ?
Completion: 20.6 µM (inactive)

Prompt: GI50 lookup needed for O=c1[nH]cnc2[nH]nnc12 , thanks.
Completion: 8.02 µM (inactive)

Prompt: Any idea what its GI50 is? The compound is CCCC/C(C)=N/NC(N)=S
Completion: > 100 µM (inactive)

Prompt: May I ask what GI50 has been recorded for CN/C(=N/C#N)NCc1ccccc1 ?
Completion: > 100 µM (inactive)

Prompt: Tell me the measured GI50 of CNC(=O)OCc1nc([S+](C)[O-])n(C)c1COC(=O)NC (centres undefined) , please.
Completion: > 34.6 µM (inactive)

Prompt: Name the recorded GI50 for C1=CC=C2NCCSCC/N=C3/C=CC=CC=C3NCCSCC/N=C\2C=C1 .
Completion: > 100 µM (inactive)

Prompt: Can you look up the measured GI50 of CC(=O)Nc1[nH]n(C)c(=O)c1-c1nnc(C)s1 for me?
Completion: > 100 µM (inactive)

Prompt: Query: GI50; subject: C=C1[C@@H](C)[C@H]2[C@H](Cc3ccccc3)NC(=O)[C@]23OC(=O)/C=C/[C@H](O)CCC[C@@H](C)C/C=C/[C@H]3[C@@H]1O
Completion: 14.5 µM (inactive)

Prompt: Value lookup for GI50; key = NC(=O)c1c[se]c(C2OC(CO)C(O)C2O)n1 (centres undefined)
Completion: 25.4 µM (inactive)

Prompt: // GI50 lookup, key: Oc1c(Cl)c2nccnc2c2ccccc12
Completion: > 100 µM (inactive)

Prompt: What measured GI50 goes with COC(=O)C(C#N)C1NC(=O)c2ccccc21 (centres undefined) ?
Completion: > 100 µM (inactive)

Prompt: Which GI50 value is on record for C=C1C(=O)OC2/C=C(\C)CC(O)/C=C(/CO)CC(OC(=O)/C(C)=C/C)C12 (centres undefined) ?
Completion: 14.3 µM (inactive)

Prompt: I would be grateful if you could share the reported GI50 for C=C1C(OC(C)=O)CC(OC(C)=O)C2(C)C(OC(C)=O)C(OC(C)=O)C3=C(C)C(OC(=O)/C=C/c4ccccc4)CC(C(OC(C)=O)C12)C3(C)C (centres undefined) .
Completion: > 100 µM (inactive)

Prompt: Report GI50 for CCCN(CCC)C(=O)Cc1c2n(c3ccccc13)Cc1ccccc1-2 please.
Completion: 23.6 µM (inactive)

Prompt: Reported GI50, compound O=S1(=O)OCCOS(=O)(=O)C1Cl : ____
Completion: > 100 µM (inactive)

Prompt: Item under review: COc1ccc([N+]2=NC(c3ccc([N+](=O)[O-])cc3)=NN(c3ccccc3)C2)cc1 . Reported GI50?
Completion: 40.1 µM (inactive)

Prompt: Fill in the blank: the reported GI50 of N#CN1CC[C@@H]2CC3(CCC2C1)OCCO3 (some centres undefined) is ____.
Completion: > 100 µM (inactive)

Prompt: Please look up its GI50: BrC/C=C/C[P+](c1ccccc1)(c1ccccc1)c1ccccc1
Completion: 27.5 µM (inactive)

Prompt: Request the reported GI50 associated with CCCN(CCCCC(NC(C)=O)C(=O)NCc1ccccc1)C(=O)NC (centres undefined)
Completion: > 100 µM (inactive)

Prompt: I am curious: what GI50 value has been reported for COc1cc(Nc2nc3c(N)cc(C(F)(F)F)cc3nc2-c2ccccc2)cc(OC)c1OC ?
Completion: 81.8 µM (inactive)

Prompt: So what's the measured GI50 for this one? C=C1C(=O)O[C@H]2C1[C@H](OC(=O)/C(C)=C\COC(C)=O)C[C@]1(CO1)[C@@H]1[C@H](O)[C@H]3O[C@@]3(C)[C@@H]12 (some centres undefined)
Completion: 19.4 µM (inactive)

Prompt: For Nc1n[n+](-c2ccccc2)no1 , what is its reported GI50?
Completion: 18.3 µM (inactive)

Prompt: # get_value(readout='GI50', item= CCC/C(=N\NC(=O)c1cc2ccccc2cc1O)C(CC)C(=O)CCC(=O)N(Cc1ccccc1)Cc1ccccc1 (centres undefined) )
Completion: 26.3 µM (inactive)

Prompt: What does the record list as GI50 for C=C[Si](C)(C)COC(=O)/C(C#N)=C/C=C/c1ccccc1 ?
Completion: > 100 µM (inactive)

Prompt: Look at this compound and give its reported GI50. COc1cc2ccc1-c1cc(ccc1O)CC1c3cc4c(cc3CCN1C)Oc1c(OC)cc3c(c1O4)C(C2)N(C)CC3 (centres undefined)
Completion: 2 µM (inactive)

Prompt: # get_value(readout='GI50', item= CN(C)CCCNc1ccc2nnn3c4ccc([N+](=O)[O-])cc4c(=O)c1c23 )
Completion: 1.89 µM (inactive)

Prompt: Dear colleague, I am looking for the recorded GI50 of the following compound: NC(=O)c1c(-c2ccccc2)c(-c2ccccc2)cc2c(=O)c3ccccc3[nH]c12
Completion: 21.8 µM (inactive)

Prompt: Bench note: what GI50 did CCc1ccccc1NC(=O)c1cccc([N+](=O)[O-])c1O show?
Completion: 17.2 µM (inactive)
